Parameter koff: see the listing below.
- target-desc: SARS-COV-2 RBD extracellular domain expressed with a C-terminal mouse IgG2a (SARS-CoV-2)
readout-kind: koff (s⁻¹)

• mAb10913 (antibody, V domains shown) VH: EVQLVESGGGLVQPGGSLRLSCAASGFTFRNYEMNWVRQAPGKGLEWVSYITSSGSTMYYADSVKGRFTISRDNAKNSLYLQMNSLRAEDTAVYYCARDGFYYYYAMDVWGQGTTVTVSS VL: QSVLTQPPSVSAAPGQKVTISCSGSSSNIGNNYVSWYQQLPGTAPKLLIYDNNKRPSGIPDRFSGSKSGTSATLGITGLQTGDEADYYCGTWDSSLSVGRVFGTGTKVTVLG = 0.000152
• mAb10982 (antibody, V domains shown) VH: EVQLVESGGGLVQPGGSLRLSCAASGLTVSSNYMSWVRQAPGKGLEWVSVIYSGGTTYYADSVKGRFTISRHNSKNTLSLQMNSLRAEDTAVYYCARGEGANYYGMDVWGQGTTVTVSS VL: QSVLTQPPSVSGAPGQRVTISCTGSSSNIGTGYDVHWYQQLPGTAPKLLIYGNSNRPSGVPDRFSGSKSGTSASLAITGLQAEDEADYYCQSYDSSLSGYVVFGGGTKLTVLG = 1.69e-05
